Quick reference for pKd among some binders
Target: T1, EsCas13d, nuclease-dead (Eubacterium siraeum, UniProt B0MS50, R295A;H300A;R849A;H854A)
T1 sequence: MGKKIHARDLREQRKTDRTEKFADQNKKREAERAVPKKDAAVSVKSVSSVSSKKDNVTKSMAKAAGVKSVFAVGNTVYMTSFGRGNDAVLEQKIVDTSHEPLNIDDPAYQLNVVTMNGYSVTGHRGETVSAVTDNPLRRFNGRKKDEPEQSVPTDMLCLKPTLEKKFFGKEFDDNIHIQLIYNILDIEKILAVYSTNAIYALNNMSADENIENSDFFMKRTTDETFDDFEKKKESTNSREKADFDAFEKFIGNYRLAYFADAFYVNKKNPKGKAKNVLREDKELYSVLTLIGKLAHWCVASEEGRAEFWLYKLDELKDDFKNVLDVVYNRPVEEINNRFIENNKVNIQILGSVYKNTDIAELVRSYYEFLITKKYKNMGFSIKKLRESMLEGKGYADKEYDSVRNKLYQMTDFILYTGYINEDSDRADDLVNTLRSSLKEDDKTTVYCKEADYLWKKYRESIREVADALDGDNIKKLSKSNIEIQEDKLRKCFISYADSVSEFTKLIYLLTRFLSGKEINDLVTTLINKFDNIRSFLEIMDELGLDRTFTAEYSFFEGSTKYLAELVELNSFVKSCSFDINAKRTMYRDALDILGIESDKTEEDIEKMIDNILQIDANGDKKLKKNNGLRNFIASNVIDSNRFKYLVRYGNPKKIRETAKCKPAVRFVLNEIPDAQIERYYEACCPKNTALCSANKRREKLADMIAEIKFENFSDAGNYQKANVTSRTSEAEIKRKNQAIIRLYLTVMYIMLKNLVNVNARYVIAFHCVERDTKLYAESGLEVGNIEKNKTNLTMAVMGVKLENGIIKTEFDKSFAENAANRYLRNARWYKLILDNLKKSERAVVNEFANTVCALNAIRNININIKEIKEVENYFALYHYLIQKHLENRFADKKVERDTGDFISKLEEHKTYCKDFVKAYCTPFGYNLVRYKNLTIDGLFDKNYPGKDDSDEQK
Assay: crRNA (strand 1, pre-loaded); Mg2+; 40 mM Tris-HCl pH 7.5, 150 mM NaCl, 6 mM MgCl2, 1 mM DTT, 0.1% Tween-20, 0.2 mg/ml BSA; 25 C; 10 min per concentration, then washed
Conditions: tags: His6-TwinStrep-SUMO cleaved; N-terminal SNAP kept (SNAP-Surface 488); label: 3' end held by stalled T7 RNA polymerase
Worth noting: pKd values are minus log10 of concentrations stated in mol/L.

Record excerpt, results attached:
target 1 insU 3' of 18,insU 3' of 6 (mixed) RNA 1: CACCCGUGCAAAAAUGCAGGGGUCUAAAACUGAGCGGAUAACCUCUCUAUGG RNA 2: GGGAAUGGAUCCACAUCUACGAAUUCGUACCAUAUGAGAGGUUAUCCUGCUCACCGAGAUCGGAAGAGCACACGU
7.39
target 2 MT 5'PFS GGG 3'PFS AAA (mixed) RNA 1: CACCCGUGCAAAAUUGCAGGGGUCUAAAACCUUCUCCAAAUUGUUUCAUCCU RNA 2: GGGAAUGGAUCCACAUCUACGAAUUCGGGAGGAUGAAACAAUUUGGAGAAGAAAAGAUCGGAAGAGCACACGU
8.17

Problem: Consider the binder shown here: target 1 insG 3' of 18,insA 3' of 8 (mixed) RNA 1: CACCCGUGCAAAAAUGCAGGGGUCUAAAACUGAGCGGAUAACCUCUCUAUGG RNA 2: GGGAAUGGAUCCACAUCUACGAAUUCGUACCAUAGGAGAGGUUAUACCGCUCACCGAGAUCGGAAGAGCACACGU What is its recorded pKd?
Result: 7.25
